Tested on: MOLM-13
Set-up: species or system AML cell lines (8); Primary HTS, single concentration about 10 uM, Cell Titer Glo viability; log10 luminescence, per cent inhibition relative to cycloheximide control
Details: 72 h, relative to cycloheximide control, log10 luminescence, inhibitor, MOLM-13 %inh, 10 µM
Each item that follows carries a reported MOLM-13 %inh.

Here's what some known entries look like.
Compound	Measured
C[C@H]1O[C@@H](O[C@H]2[C@@H](O)C[C@H](O[C@H]3[C@@H](O)C[C@H](O[C@H]4CC[C@@]5(C)[C@H](CC[C@@H]6[C@@H]5C[C@@H](O)[C@]5(C)[C@@H](C7=CC(=O)OC7)CC[C@]65O)C4)O[C@@H]3C)O[C@@H]2C)C[C@H](O)[C@@H]1O [SJ000285739-6, DIGOXIN]	91.77%
C[C@H]1O[C@@H](O[C@H]2[C@@H](O)C[C@H](O[C@H]3[C@@H](O)C[C@H](O[C@H]4CC[C@@]5(C)[C@H](CC[C@@H]6[C@@H]5CC[C@]5(C)[C@@H](C7=CC(=O)OC7)CC[C@]65O)C4)O[C@@H]3C)O[C@@H]2C)C[C@H](O)[C@@H]1O [SJ000285233-5, DIGITOXIN]	87.24%

Find MOLM-13 %inh (MOLM-13) for the entry "CCCC[C@@H](C=O)NC(=O)[C@H](CC(C)C)NC(=O)OCc1ccccc1"
2.613%

* * *

Each item that follows carries a reported U937 %inh.
Test system: U937
Design: species or system AML cell lines (8); Primary HTS, single concentration about 10 uM, Cell Titer Glo viability; log10 luminescence, per cent inhibition relative to cycloheximide control
Details: 72 h, relative to cycloheximide control, log10 luminescence; inhibitor
Could you give me the number in %? Just the number is fine.

Here's what some known entries look like.
Compound	Test Target	Measured
C/C(=C\c1ccc(C(=O)O)cc1)c1ccc2c(c1)C(C)(C)CCC2(C)C	U937	8.124
C[C@@H](O)[C@@H]1NC(=O)[C@H](CCCCN)NC(=O)[C@@H](Cc2c[nH]c3ccccc23)NC(=O)[C@H](Cc2ccccc2)NC(=O)[C@@H](NC(=O)[C@H](N)Cc2ccccc2)CSSC[C@@H](C(=O)N[C@H](CO)[C@@H](C)O)NC1=O [SJ000520506-1, OCTREOTIDE ACETATE]	U937	-3.486
C#C[C@]1(O)CC[C@H]2[C@@H]3CCC4=CCCC[C@@H]4[C@H]3C(=C)C[C@@]21CC	U937	2.771

Dear colleague, I am looking for the recorded U937 %inh of the following compound: "CCOC(=O)C1=C(N)Oc2ccc(Br)cc2[C@H]1[C@H](C#N)C(=O)OCC"
6.381

Dear colleague, I am looking for the recorded U937 %inh of the following compound: "C[C@@H](Oc1cc(-n2cnc3ccc(OC4CCN(C)CC4)cc32)sc1C(N)=O)c1ccccc1Cl"
71

Dear colleague, I am looking for the recorded U937 %inh of the following compound: "O=C(NCC1CC1)c1ccc(-c2cccc(C(=O)NC3CC3)c2)cc1"
0.894

Dear colleague, I am looking for the recorded U937 %inh of the following compound: "CN(C)CC#Cc1cccc(C(=O)c2cnn(-c3ccc(F)cc3)c2N)c1"
6.781

Dear colleague, I am looking for the recorded U937 %inh of the following compound: "Fc1cccc(COc2ccc(Nc3ncnc4sc(-c5cccs5)cc34)cc2Cl)c1"
3.407

Dear colleague, I am looking for the recorded U937 %inh of the following compound: "Cc1cc(NS(=O)(=O)c2ccc(N)cc2)no1"
-2.098

Dear colleague, I am looking for the recorded U937 %inh of the following compound: C[C@]12CCC(=O)C=C1CC[C@@H]1[C@@H]2[C@@H](O)C[C@@]2(C)[C@H]1CC[C@]2(O)C(=O)COP(=O)(O)O [SJ000286156-3, HYDROCORTISONE SODIUM PHOSPHATE]
5.176
